Sourced from ChEMBL document CHEMBL4342419

Measured Ki by item
biological target: 5-hydroxytryptamine receptor 1A (Homo sapiens, UniProt P08908)
Sequence (P08908 whole entry): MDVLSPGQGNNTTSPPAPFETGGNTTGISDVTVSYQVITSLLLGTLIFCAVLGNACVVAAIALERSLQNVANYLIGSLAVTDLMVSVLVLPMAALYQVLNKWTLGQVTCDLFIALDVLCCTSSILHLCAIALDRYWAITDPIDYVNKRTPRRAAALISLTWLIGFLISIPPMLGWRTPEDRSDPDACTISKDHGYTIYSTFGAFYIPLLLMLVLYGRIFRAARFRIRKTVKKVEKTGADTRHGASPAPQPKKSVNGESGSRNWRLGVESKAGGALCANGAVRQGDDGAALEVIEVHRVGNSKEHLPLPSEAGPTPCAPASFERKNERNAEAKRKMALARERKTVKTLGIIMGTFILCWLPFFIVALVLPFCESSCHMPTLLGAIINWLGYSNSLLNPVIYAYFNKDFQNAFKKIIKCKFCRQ

Solved entries (count: 6):
[[record]]
compound = "Cc1nn(C)c(C)c1-c1ccc(O)c(CCN(C)C)c1"
measured = "> 10000 nM"

[[record]]
compound = "Cc1cccc(S(=O)(=O)N(C)[C@H](C)CCN2CCC(C)CC2)c1"
measured = "> 3000 nM"

[[record]]
compound = "CNC(=O)Cn1c2c(c3ccccc31)CN(CCCCC13CCCc4cccc(c41)NC3=O)CC2 (configuration not stated)"
measured = "128 nM"

[[record]]
compound = "O=S(=O)(c1ccc2cc[nH]c2c1)N1CCC[C@H]1CCN1CCC(Oc2ccc(Cl)cc2)CC1"
measured = "562 nM"

[[record]]
compound = "COc1cccc(OC)c1-c1cccc(CCN(C)C)c1"
measured = "4830 nM"

[[record]]
compound = "Clc1ccc(-c2nn(Cc3ccccc3)c3c2CCNCC3)cc1 [JNJ-18038683 FREE BASE]"
measured = "6.5 nM"


In the following, a different compound is considered.
Fill in: 5-hydroxytryptamine receptor 1A (Homo sapiens, UniProt P08908) Ki for O=C1Cc2ccccc2N1CC/C=C/CCN1CCc2ccccc2C1 = > 1000 nM
